experiment: Cmax in ICR mouse at 10 mg/kg, po measured upto 24 hrs by LC-MS/MS analysis; format: ADME, organism-based; details: in vivo
experimental.readout: Cmax (ng/mL)
# value in ng/mL; strip the unit string

Solved cases below.
[[record]]
compound = "CN1CC[C@@]23CCCC[C@@H]2[C@@H]1Cc1ccc(N)cc13"
measurement_unit = "ng/mL"
val = 1380

[[record]]
compound = "COc1ccc2c(c1)[C@]13CCCC[C@@H]1[C@H](C2)N(C)CC3 [DEXTROMETHORPHAN]"
measurement_unit = "ng/mL"
val = 57.7


Now for the compound whose Cmax we want.
Short answer for CC(=O)Nc1ccc2c(c1)[C@]13CCCC[C@@H]1[C@H](C2)N(C)CC3 : Cmax was 1040

###

molecular target: Glutamate NMDA receptor; GRIN1/GRIN2A (Homo sapiens, UniProt Q05586+Q12879); assay: Antagonist activity at human GluN1/GluN2A NMDA receptor expressed in HEK293 cells assessed as reduction in glutamate induced current at -70 mV holding potential by whole-cell patch clamp technique; type: cell-based
Sequence (Q12879 whole entry, other chains not shown): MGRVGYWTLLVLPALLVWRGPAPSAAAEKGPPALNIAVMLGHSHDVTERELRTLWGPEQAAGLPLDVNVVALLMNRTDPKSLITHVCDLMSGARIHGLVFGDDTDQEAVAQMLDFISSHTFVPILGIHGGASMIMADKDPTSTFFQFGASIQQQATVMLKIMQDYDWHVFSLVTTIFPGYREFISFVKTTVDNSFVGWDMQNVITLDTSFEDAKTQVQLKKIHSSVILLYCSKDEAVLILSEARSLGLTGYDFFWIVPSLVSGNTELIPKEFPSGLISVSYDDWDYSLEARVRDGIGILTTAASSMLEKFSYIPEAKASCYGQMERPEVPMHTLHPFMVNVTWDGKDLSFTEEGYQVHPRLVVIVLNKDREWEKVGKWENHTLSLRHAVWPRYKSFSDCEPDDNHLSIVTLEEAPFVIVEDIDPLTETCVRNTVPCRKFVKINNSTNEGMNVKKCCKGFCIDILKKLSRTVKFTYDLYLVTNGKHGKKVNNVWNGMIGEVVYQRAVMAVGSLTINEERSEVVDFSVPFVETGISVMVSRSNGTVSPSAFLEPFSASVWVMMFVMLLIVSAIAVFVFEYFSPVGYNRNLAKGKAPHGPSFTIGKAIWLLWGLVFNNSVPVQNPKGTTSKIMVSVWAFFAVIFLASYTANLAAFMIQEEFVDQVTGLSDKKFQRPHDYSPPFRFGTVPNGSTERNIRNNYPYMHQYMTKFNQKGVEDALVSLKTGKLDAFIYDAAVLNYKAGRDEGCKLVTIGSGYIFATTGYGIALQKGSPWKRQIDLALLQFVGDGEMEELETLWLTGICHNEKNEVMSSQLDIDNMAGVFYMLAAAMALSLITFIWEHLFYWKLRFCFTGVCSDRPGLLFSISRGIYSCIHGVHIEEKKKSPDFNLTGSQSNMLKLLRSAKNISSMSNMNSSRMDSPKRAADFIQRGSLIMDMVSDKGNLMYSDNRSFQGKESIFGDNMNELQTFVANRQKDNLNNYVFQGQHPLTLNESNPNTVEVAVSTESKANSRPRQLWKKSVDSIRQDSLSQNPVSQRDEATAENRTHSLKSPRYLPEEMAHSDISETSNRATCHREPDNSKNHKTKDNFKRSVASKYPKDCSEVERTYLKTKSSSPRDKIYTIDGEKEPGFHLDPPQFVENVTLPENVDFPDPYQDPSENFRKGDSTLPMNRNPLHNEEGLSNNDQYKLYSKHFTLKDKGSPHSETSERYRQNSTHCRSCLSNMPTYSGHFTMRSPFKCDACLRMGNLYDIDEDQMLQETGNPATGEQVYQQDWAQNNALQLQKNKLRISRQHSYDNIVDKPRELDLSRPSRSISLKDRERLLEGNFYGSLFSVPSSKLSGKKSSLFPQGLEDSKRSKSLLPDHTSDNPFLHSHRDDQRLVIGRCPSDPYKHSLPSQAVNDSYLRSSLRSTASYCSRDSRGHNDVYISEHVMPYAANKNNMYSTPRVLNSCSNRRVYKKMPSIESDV
experimental.readout: pIC50
Answer as the number alone; pIC50 is minus log10 of concentration in mol/L.

The following compounds have reported results that may help.
[[record]]
structure_as_smiles = "c1ccc2c(c1)C[C@@H]1NCC[C@]23CCCC[C@H]13"
val = 6.37

[[record]]
structure_as_smiles = "COc1ccc2c(c1)[C@]13CCCC[C@@H]1[C@H](C2)N(C)CC3"
val = 5.98


pIC50 reading for CN1CC[C@@]23CCCC[C@@H]2[C@@H]1Cc1ccc(N)cc13 : 5.46

###

assay: Metabolic stability in human liver microsome assessed as hepatic extraction ratio in presence of NADPH measured upto 60 mins by LC-MS/MS analysis; format: ADME; conditions: liver microsomes, read-out: ERH
experimental.readout: hepatic extraction ratio at 1 h
Output: the number by itself.

hepatic extraction ratio at 1 h measured on CN1CC[C@@]23CCCC[C@@H]2[C@@H]1Cc1ccc(N)cc13 = 0.525

###

Known AUC(0-t) at 24 h of a selection of compounds
assay: AUC (0 to t) in ICR mouse at 10 mg/kg, po measured upto 24 hrs by LC-MS/MS analysis; assay type: ADME, organism-based; settings: in vivo
Please respond with the number in ng·h/mL and leave the unit unwritten.

// below: answered compounds
[[record]]
compound = "CN1CC[C@@]23CCCC[C@@H]2[C@@H]1Cc1ccc(N)cc13"
val = 2710

[[record]]
compound = "CC(=O)Nc1ccc2c(c1)[C@]13CCCC[C@@H]1[C@H](C2)N(C)CC3"
val = 1220


Notebook: COc1ccc2c(c1)[C@]13CCCC[C@@H]1[C@H](C2)N(C)CC3 [DEXTROMETHORPHAN] , AUC(0-t) at 24 h read as 198

###

biological target: Sodium-dependent dopamine transporter (Homo sapiens); test: Inhibition of DAT (unknown origin) at 10 uM relative to control
Sequence (Q01959 whole entry): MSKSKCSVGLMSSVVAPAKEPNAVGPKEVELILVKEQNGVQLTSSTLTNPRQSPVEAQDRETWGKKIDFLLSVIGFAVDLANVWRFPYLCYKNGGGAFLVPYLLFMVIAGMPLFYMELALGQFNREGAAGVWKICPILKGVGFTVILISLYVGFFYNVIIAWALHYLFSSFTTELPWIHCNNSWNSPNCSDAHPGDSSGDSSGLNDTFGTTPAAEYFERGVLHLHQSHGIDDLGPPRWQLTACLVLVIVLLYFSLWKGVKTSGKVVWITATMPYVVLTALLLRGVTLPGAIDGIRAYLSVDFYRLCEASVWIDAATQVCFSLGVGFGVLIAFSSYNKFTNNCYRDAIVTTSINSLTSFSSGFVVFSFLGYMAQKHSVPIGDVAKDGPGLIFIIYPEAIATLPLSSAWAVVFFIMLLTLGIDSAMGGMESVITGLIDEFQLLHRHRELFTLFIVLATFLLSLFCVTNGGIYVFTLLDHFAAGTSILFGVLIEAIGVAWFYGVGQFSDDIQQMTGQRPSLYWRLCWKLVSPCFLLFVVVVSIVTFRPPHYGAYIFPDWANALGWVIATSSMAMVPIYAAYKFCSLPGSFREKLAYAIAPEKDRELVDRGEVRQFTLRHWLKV
Active and inactive are the calls of the source. The rule behind the calls is not given here.
experimental.readout: inhibition

For orientation, consider the following solved cases.
[[record]]
compound = "CCN1CC[C@@]23CCCC[C@@H]2[C@@H]1Cc1ccc(O)cc13"
val = "12%"

[[record]]
compound = "CCOc1ccc2c(c1)[C@]13CCCC[C@@H]1[C@H](C2)NCC3"
val = "16%"

[[record]]
compound = "CN1CC[C@@]23CCCC[C@@H]2[C@@H]1Cc1ccc(C(N)=O)cc13"
val = "inactive"

[[record]]
compound = "CNc1ccc2c(c1)[C@]13CCCC[C@@H]1[C@H](C2)N(C)CC3"
val = "10%"

[[record]]
compound = "CC(=O)Nc1ccc2c(c1)[C@]13CCCC[C@@H]1[C@H](C2)N(C)CC3"
val = "19%"

[[record]]
compound = "Cc1ccc2c(c1)[C@]13CCCC[C@@H]1[C@H](C2)NCC3"
val = "inactive"

[[record]]
compound = "CCOc1ccc2c(c1)[C@]13CCCC[C@@H]1[C@H](C2)N(CC)CC3"
val = "6%"

[[record]]
compound = "COc1ccc2c(c1)[C@]13CCCC[C@@H]1[C@H](C2)NCC3"
val = "4%"

[[record]]
compound = "CN1CC[C@@]23CCCC[C@@H]2[C@@H]1Cc1ccc(C(C)(C)O)cc13"
val = "inactive"

[[record]]
compound = "CC(O)c1ccc2c(c1)[C@]13CCCC[C@@H]1[C@H](C2)N(C)CC3 (some centres not stated)"
val = "inactive"


// inhibition (Sodium-dependent dopamine transporter (Homo sapiens)) for COc1ccc2c(c1)[C@]13CCCC[C@@H]1[C@H](C2)N(C)CC3 [DEXTROMETHORPHAN] = inactive

The value of inhibition recorded for CCOc1ccc2c(c1)[C@]13CCCC[C@@H]1[C@H](C2)N(C)CC3 when tested on Sodium-dependent dopamine transporter (Homo sapiens) reads 10%

Lab note: compound CN1CC[C@@]23CCCC[C@@H]2[C@@H]1Cc1ccc(NC(=O)c2ccccc2)cc13 tested on Sodium-dependent dopamine transporter (Homo sapiens); recorded inhibition was 15%

Result for COC(=O)c1ccc2c(c1)[C@]13CCCC[C@@H]1[C@H](C2)N(C)CC3 , tested on Sodium-dependent dopamine transporter (Homo sapiens), inhibition: inactive

The reported Sodium-dependent dopamine transporter (Homo sapiens) inhibition of CN1CC[C@@]23CCCC[C@@H]2[C@@H]1Cc1ccc(O)cc13 [DEXTRORPHAN] is inactive
